Values from patent US20240317746A1

# assay: Preliminary solubility test: estimated solubility at RT by visual observation
# Assay type: physicochemical
# measurementParameters: DMSO, DMF, DMAc (each), organic solvent or mixture, thermodynamic from solid, DMSO, DMF, DMAc, read-out: Solubility
quantity: solubility

# chemicalSmiles, quantity, measured
data = [
    ("C[C@@H]1[C@@H](Oc2ccc(C(=O)NC3CC3)nc2)CN1Cc1cnc2cc(Cl)c(=O)[nH]c2c1", "solubility", "20 to 50 mg/mL"),
]

* * *

# assay: pH solubility profile of Form I in pH buffers
# Assay type: physicochemical
# measurementParameters: aqueous buffer, thermodynamic from solid; pH 3.0 buffer (25 mM citrate), initial pH 3.01, solid loading 5 mg/mL, 25° C.

# molecule, solubility at 24 h [µg/mL]
rows = [
    ("C[C@@H]1[C@@H](Oc2ccc(C(=O)NC3CC3)nc2)CN1Cc1cnc2cc(Cl)c(=O)[nH]c2c1 [Freebase Form I]", 784),
]

* * *

# assay: Solubility in bio-relevant media (SGF, FaSSIF, FeSSIF) and water
# Format: physicochemical
# measurementParameters: SGF, 37 °C, pH 1.23, simulated gastric fluid, thermodynamic from solid, SGF, 37° C.; read-out: solubility in SGF
quantity: solubility

# molecule, measured
rows = [
    ("C[C@@H]1[C@@H](Oc2ccc(C(=O)NC3CC3)nc2)CN1Cc1cnc2cc(Cl)c(=O)[nH]c2c1 [Freebase Form I]", "> 5000 µg/mL"),
]

* * *

# assay: Solubility in bio-relevant media (SGF, FaSSIF, FeSSIF) and water
# Type: physicochemical
# measurementParameters: SGF, 37 °C, pH 1.23, simulated gastric fluid, thermodynamic from solid, SGF, initial pH 1.23, 37° C.; read-out: Solubility 0.5 h, 2 h, 24 h
# Experimental: At 0.5, 2 and 24 hours, about 0.6 mL of each suspension was filtered, the filtrate was analyzed by HPLC and pH meter, and the filter cake was analyzed by XRPD. The samples were prepared in duplicate (n=2) per condition. Average value (n=2) was presented. HPLC analysis was performed with an Agilent HPLC 1260 series instrument.
quantity: solubility

# molecule, measured
records = [
    ("C[C@@H]1[C@@H](Oc2ccc(C(=O)NC3CC3)nc2)CN1Cc1cnc2cc(Cl)c(=O)[nH]c2c1 [Maleate Form IV]", "> 5000 µg/mL"),
]

* * *

# assay: pH solubility profile of Form I in pH buffers
# Format: physicochemical
# measurementParameters: simulated gastric fluid, thermodynamic from solid; pH 1.0 buffer (0.1N HCl), initial pH 1.01, solid loading 60 mg/mL, 25° C.

# compound, solubility at 24 h
data = [
    ("C[C@@H]1[C@@H](Oc2ccc(C(=O)NC3CC3)nc2)CN1Cc1cnc2cc(Cl)c(=O)[nH]c2c1 [Freebase Form I]", "> 44.5 mg/mL"),
]

* * *

# assay: pH solubility profile of Form I in pH buffers
# Format: physicochemical
# measurementParameters: simulated gastric fluid, thermodynamic from solid; pH 1.0 buffer (0.1N HCl), initial pH 1.01, solid loading 60 mg/mL, 25° C.

# compound, solubility at 4 h
data = [
    ("C[C@@H]1[C@@H](Oc2ccc(C(=O)NC3CC3)nc2)CN1Cc1cnc2cc(Cl)c(=O)[nH]c2c1 [Freebase Form I]", "> 44.4 mg/mL"),
]

* * *

# assay: pH solubility profile of Form I in pH buffers
# Type: physicochemical
# measurementParameters: aqueous buffer, thermodynamic from solid; pH 6.8 buffer (25 mM phosphate), initial pH 6.78, solid loading 5 mg/mL, 25° C.

# compound, solubility at 24 h, µg/mL
measured = [
    ("C[C@@H]1[C@@H](Oc2ccc(C(=O)NC3CC3)nc2)CN1Cc1cnc2cc(Cl)c(=O)[nH]c2c1 [Freebase Form I]", 8),
]

* * *

# assay: Preliminary solubility test: estimated solubility at RT by visual observation
# Assay type: physicochemical
# measurementParameters: organic solvent or mixture, thermodynamic from solid, most solvent systems, read-out: Solubility
# Procedure: The solubility of Compound 1 (starting material) was estimated at RT in 18 single solvents and 6 solvent mixtures by visual observation. Approximately 5 mg solids were weighed into 8 mL glass vial, and then solvent was added stepwise until solids were dissolved completely or a total of solvent volume reached 5 mL. […] The solubility was estimated and for reference only.

# molecule, solubility
records = [
    ("C[C@@H]1[C@@H](Oc2ccc(C(=O)NC3CC3)nc2)CN1Cc1cnc2cc(Cl)c(=O)[nH]c2c1 [Freebase Form I]", "< 5 mg/mL"),
]

* * *

# assay: pH solubility profile of Form I in pH buffers
# Assay type: physicochemical
# measurementParameters: pH 1, simulated gastric fluid, thermodynamic from solid; 0.1 N HCl, 25° C.; read-out: solubility (highest)

# compound, solubility
rows = [
    ("C[C@@H]1[C@@H](Oc2ccc(C(=O)NC3CC3)nc2)CN1Cc1cnc2cc(Cl)c(=O)[nH]c2c1 [Freebase Form I]", "> 40 mg/mL"),
]

* * *

# assay: pH solubility profile of Form I in pH buffers
# Type: physicochemical
# measurementParameters: aqueous buffer, thermodynamic from solid; pH 3.0 buffer (25 mM citrate), initial pH 3.01, solid loading 5 mg/mL, 25° C.
quantity: solubility at 4 h

# molecule, measured
measured = [
    ("C[C@@H]1[C@@H](Oc2ccc(C(=O)NC3CC3)nc2)CN1Cc1cnc2cc(Cl)c(=O)[nH]c2c1 [Freebase Form I]", "2460 µg/mL"),
]

* * *

# assay: DVS test (dynamic vapor sorption, hygroscopicity)
# Type: physicochemical
# measurementParameters: DVS

# compound, hygroscopicity (in words)
records = [
    ("C[C@@H]1[C@@H](Oc2ccc(C(=O)NC3CC3)nc2)CN1Cc1cnc2cc(Cl)c(=O)[nH]c2c1 [Tartrate Form I]", "slightly hygroscopic"),
    ("C[C@@H]1[C@@H](Oc2ccc(C(=O)NC3CC3)nc2)CN1Cc1cnc2cc(Cl)c(=O)[nH]c2c1 [Freebase Form I]", "slightly hygroscopic"),
]

* * *

# assay: pH solubility profile of Form I in pH buffers
# Type: physicochemical
# measurementParameters: aqueous buffer, thermodynamic from solid; pH 5.0 buffer (25 mM citrate), initial pH 4.95, solid loading 5 mg/mL, 25° C.

# compound, unitString, solubility at 4 h
data = [
    ("C[C@@H]1[C@@H](Oc2ccc(C(=O)NC3CC3)nc2)CN1Cc1cnc2cc(Cl)c(=O)[nH]c2c1 [Freebase Form I]", "µg/mL", 83),
]

* * *

# assay: Preliminary solubility test: estimated solubility at RT by visual observation
# Format: physicochemical
# measurementParameters: DCM/MeOH (1/1), organic solvent or mixture, thermodynamic from solid, DCM/MeOH (1/1), read-out: Solubility

# molecule, solubility
data = [
    ("C[C@@H]1[C@@H](Oc2ccc(C(=O)NC3CC3)nc2)CN1Cc1cnc2cc(Cl)c(=O)[nH]c2c1 [Compound 1]", "5 to 20 mg/mL"),
]

* * *

# assay: Preliminary solubility test: estimated solubility at RT by visual observation
# Assay type: physicochemical
# measurementParameters: organic solvent or mixture, thermodynamic from solid, Acetone/Water (9/1), ACN/Water (9/1), MeOH/Water (9/1), Acetone/EtOH (1/1), THF, MeOH, read-out: Solubility
# Protocol: The solubility of Compound 1 (starting material) was estimated at RT in 18 single solvents and 6 solvent mixtures by visual observation. Approximately 5 mg solids were weighed into 8 mL glass vial, and then solvent was added stepwise until solids were dissolved completely or a total of solvent volume reached 5 mL. […] The solubility was estimated and for reference only.
quantity: solubility

# compound, quantity, measured
records = [
    ("C[C@@H]1[C@@H](Oc2ccc(C(=O)NC3CC3)nc2)CN1Cc1cnc2cc(Cl)c(=O)[nH]c2c1 [Compound 1]", "solubility", "1000 to 5000 µg/mL"),
]

* * *

# assay: DVS test (dynamic vapor sorption, hygroscopicity)
# Assay type: physicochemical
# measurementParameters: DVS
Counter-ions that a name gives are not always drawn.
quantity: hygroscopicity (in words)

# molecule, measured
rows = [
    ("C[C@@H]1[C@@H](Oc2ccc(C(=O)NC3CC3)nc2)CN1Cc1cnc2cc(Cl)c(=O)[nH]c2c1 [Hemiedisylate Salt Form II]", "hygroscopic"),
    ("C[C@@H]1[C@@H](Oc2ccc(C(=O)NC3CC3)nc2)CN1Cc1cnc2cc(Cl)c(=O)[nH]c2c1 [L-Malate Salt Form II]", "hygroscopic"),
    ("C[C@@H]1[C@@H](Oc2ccc(C(=O)NC3CC3)nc2)CN1Cc1cnc2cc(Cl)c(=O)[nH]c2c1 [Sulfate Salt Form III]", "hygroscopic"),
]

* * *

# assay: Solubility in bio-relevant media (SGF, FaSSIF, FeSSIF) and water
# Format: physicochemical
# measurementParameters: FeSSIF, 37 °C, pH 4.99, fessif, thermodynamic from solid, initial pH 4.99, 37° C., average n=2

# molecule, solubility at 24 h / µg/mL
data = [
    ("C[C@@H]1[C@@H](Oc2ccc(C(=O)NC3CC3)nc2)CN1Cc1cnc2cc(Cl)c(=O)[nH]c2c1 [Maleate Form IV]", 131),
]
